Data origin: ChEMBL document CHEMBL1132933

# system tested: Trypsin (Homo sapiens, UniProt P07477+P07478+P35030)
# protocol text: Inhibitory activity against human trypsin (using Chromozym TH as the substrate)
# Type: protein assay
quantity: Ki (µM)
API: value field is a number in µM; no unit string.

Examples with their reported Ki follow.
compound	system tested	display unit	Ki
N=C(N)NS(=O)(=O)c1cccc(N)c1	Trypsin (Homo sapiens, UniProt P07477+P07478+P35030)	µM	1.145
N=C(N)NNS(=O)(=O)c1ccc(Cl)cc1	Trypsin (Homo sapiens, UniProt P07477+P07478+P35030)	µM	1.1
COc1ccc(S(=O)(=O)NN=C(N)N)cc1	Trypsin (Homo sapiens, UniProt P07477+P07478+P35030)	µM	1.275
COC(=N)NS(=O)(=O)CC12CCC(CC1=O)C2(C)C (stereo unspecified)	Trypsin (Homo sapiens, UniProt P07477+P07478+P35030)	µM	1.075
COC(=N)NS(=O)(=O)c1ccc(NC(=O)C2CCCN2C(=O)[C@H](Cc2ccccc2)NC(=O)NS(=O)(=O)c2ccc(C)cc2)cc1 (stereo partly specified)	Trypsin (Homo sapiens, UniProt P07477+P07478+P35030)	µM	1.42

Value wanted: Ki (Trypsin (Homo sapiens, UniProt P07477+P07478+P35030)) of entry N=C(N)NNS(=O)(=O)c1ccc(F)cc1 1.025

Kindly state the measured Ki obtained for COC(=N)NS(=O)(=O)c1ccc(F)cc1 with Trypsin (Homo sapiens, UniProt P07477+P07478+P35030). 1.2
